# protocol: in vitro
# condition: human, hela cells, % viability
Reported viability at 28.5 h, 10 µM values for the following compounds.
metric: viability at 28.5 h, 10 µM (%)

> print(dat)
                                   compound  measured.result
1          Cc1cc(SCc2ccc(Cl)cc2)nc(=O)[nH]1             90.8
2       O=C(O)CCC(=O)Nc1ccc2c(c1)oc1ccccc12             86.3
3  COc1cc(/C=C2/SC(=S)N(CCC(=O)N3CCN(C)CC3)C2=O)cc(OC)c1OC             88.1
4  O=C(O)CCCCC1SCC2NC(=O)NC21 (stereo not drawn) [CBK012026G]              105
5  COC(=O)c1sc(N2CCCC2)c(S(=O)(=O)C(C)C)c1N             87.9
6  O=C(CO)N1CC2(CCN(CCc3c[nH]c4ccccc34)CC2)c2ccccc21             98.5
7  Cc1ncc([N+](=O)[O-])n1CCOC(=O)NC(N1CCOCC1)C(Cl)(Cl)Cl (stereo not drawn)              103
8  CCn1cnc2cc(NC(=O)CC(C)n3nc(C)cc3C)ccc21 (stereo not drawn)             94.8
9  CCn1cc(C(=O)O)c(=O)c2cc(F)c(N3CCN(C(=O)c4ccc(C)cc4)CC3)cc21             99.6

###

# protocol: in vitro
# condition: human, hela cells, % viability
Reported viability at 28.5 h, 10 µM values for the following molecules.
metric: viability at 28.5 h, 10 µM (%)

> print(dat)
                                    molecule  unit.text  measured.result
 1    Nc1ccc2cc(-c3cccc(OCc4ccccc4)c3)cnc2n1          %              108
 2  COc1cncc(-c2cc(N3CCN(C(=O)c4ccco4)CC3)ncn2)c1          %             97.4
 3  CCn1cc(C(=O)N2CCC(C(=O)O)CC2)c(=O)c2cc3c(cc21)OCO3          %              111
 4  CCN1CC(C(=O)N2CCCCC2CN(C)C)CC1=O (stereo not shown)          %              108
 5  Cc1ccc(Nc2nccc(C3CCCN(Cc4ccc5[nH]ccc5c4)C3)n2)nc1 (stereo not shown)          %               88
 6       O=C(O)c1cc(S(=O)(=O)Nc2ccccc2)ccc1O          %             83.2
 7  COCCNC(=O)c1cc(-c2cccc(N(C)C)c2)cnc1NCC1CC1          %             93.9
 8  CC1CCc2nc(NC(=O)Cn3cc(C(=O)Nc4ccc(F)cc4)ccc3=O)sc2C1 (stereo not shown)          %              100
 9           CCOC(=O)c1sc2ccc(NC(C)=O)cc2c1C          %             76.8
10    COc1cccc2cc(C(=O)NCc3cccc4ccccc34)oc12          %             78.6
11          COCCCN(Cc1cc(F)cc(F)c1)Cc1ccccn1          %              100
12  O=C1NC2(CCc3ccccc31)CCN(Cc1ccncc1)C2 (stereo not shown)          %               99
13  CCn1cc(S(=O)(=O)N2CCCC3(CCCCC3)C2)c(C)n1          %             83.9
14  O=C(O)c1ccc(C(=O)Nc2cccc(NC(=O)C3CCCO3)c2)cc1 (stereo not shown)          %              105
15    CC(=O)Nc1c(C)ccc(S(=O)(=O)N2CCOCC2)c1C          %             98.6
16  O=C1NC(=O)C(CC(=O)N2CCC3(CC2)CC(=O)c2cc(Cl)ccc2O3)N1 (stereo not shown)          %              107
17  Cc1ccc(C#N)c(S(=O)(=O)Nc2cc(N3C[C@@H](C)N[C@@H](C)C3)c3occc3c2)c1 [CBK034756C]          %             89.7
18  Cc1cccc(Cc2cccc(C3CCCN(C(=O)c4ccc(=O)[nH]c4)C3)n2)c1 (stereo not shown)          %             95.9
19         NS(=O)(=O)c1cccc(NC(=O)c2cccs2)c1          %             94.2

###

# protocol: in vitro
# condition: human, hela cells, % viability
metric: viability at 28.5 h, 10 µM

> print(dat)
                  compound.structure.string                      metric  measured.result
1  O=C(CSc1nnc(-c2ccncc2)n1-c1ccccc1)N/N=C/c1c[nH]c2ccccc12  viability at 28.5 h, 10 µM            90.5%
2  CC(C)C(=O)N1CC2(CCN(Cc3nc4ccccc4s3)CC2)c2ccccc21  viability at 28.5 h, 10 µM              96%
3  CN(CCN1CCCC1)c1nccc(N2CCN[C@H]3CS(=O)(=O)C[C@H]32)n1  viability at 28.5 h, 10 µM            85.6%
4  Cc1nc(S(=O)(=O)N2CCC(C(=O)N3CCCC3)CC2)cn1C  viability at 28.5 h, 10 µM            88.3%

###

Reported viability at 28.5 h, 10 µM values for the following molecules.
# protocol: in vitro
# condition: human, hela cells, % viability
metric: viability at 28.5 h, 10 µM (%)

> print(dat)
                                    molecule                      metric  unit.text  measured.result
 1  CNC(=O)c1sc2ccccc2c1C1CN(Cc2cn(C)c3cc(OC)ccc23)CCO1 (centres unmarked) [CBK286087]  viability at 28.5 h, 10 µM          %             91.9
 2  O=C(c1ccc2ccccc2n1)N1CCC(Cc2ccccc2)CC1 [CBK200184]  viability at 28.5 h, 10 µM          %             96.4
 3    Cn1c(CNC2CCCCC2)nc2ccccc21 [CBK058416]  viability at 28.5 h, 10 µM          %              111
 4  Cc1ccc2c(c1C)NC(=O)CC2c1ccc(F)cc1 (centres unmarked) [CBK288221]  viability at 28.5 h, 10 µM          %              101
 5              COc1cc(Cl)nnc1Cl [CBK018956]  viability at 28.5 h, 10 µM          %              108
 6  CCOC(=O)NC(=O)N1CCC(N2C(=O)OCC2(C)C)CC1 [CBK044179]  viability at 28.5 h, 10 µM          %             90.5
 7  C=CCn1cc(CN2CCC(O)(c3ccccc3C)CC2)c(C)n1 [CBK282581]  viability at 28.5 h, 10 µM          %             86.5
 8  c1nc2nc[nH]c(N3CCN(Cc4ccc5c(c4)OCO5)CC3)c-2n1 [CBK287283]  viability at 28.5 h, 10 µM          %             83.5
 9  Cc1cc(C#N)ccc1OCC(=O)NC1CCS(=O)(=O)C1 (centres unmarked) [CBK305816]  viability at 28.5 h, 10 µM          %             84.9
10  Cc1cccc(-c2ncc(NC(=O)CCc3cccc(Cl)c3)nc2-c2cccnc2)c1 [CBK037201]  viability at 28.5 h, 10 µM          %             97.2
11  OC(CN1CCOCC1)Cn1c(-c2ccccc2)c(-c2ccccc2)c2ccc3ccccc3c21 (centres unmarked) [CBK263996G]  viability at 28.5 h, 10 µM          %             94.7
12  CC(C)(C)c1ccc(O)c(NC(=S)NC(=O)c2ccccc2I)c1 [CBK264399]  viability at 28.5 h, 10 µM          %              114
13  CC(Oc1ccccc1)C(=O)NCCCc1ccccc1 (centres unmarked) [CBK264060]  viability at 28.5 h, 10 µM          %             93.4
14  COc1ccc2cc(C#N)c(SCC(=O)Nc3ccc(F)cc3)nc2c1 [CBK068765]  viability at 28.5 h, 10 µM          %             85.7
15  COc1ccc(C(=O)Nc2c(C)nn(-c3ccccc3)c2C)cc1S(=O)(=O)NC1CC1 [CBK297906]  viability at 28.5 h, 10 µM          %             85.7
16  COc1cccc(C(=O)NCCC(=O)N2CCCC(c3ncc[nH]3)C2)c1 (centres unmarked) [CBK306864]  viability at 28.5 h, 10 µM          %             82.5
17  COC[C@H]1CCCN1C(=O)CC[C@H]1CNC(=O)[C@@H]2[C@@H](CCN2C(C)C)N1C [CBK289038]  viability at 28.5 h, 10 µM          %              103
18  CC(=O)NC(=NOCc1ccc(Br)cc1)c1nonc1NC(C)=O [CBK265342]  viability at 28.5 h, 10 µM          %             87.8
19  CN(C)CC1CCCCN1C(=O)C1CC2C=CC1C21CC1 (centres unmarked) [CBK282085]  viability at 28.5 h, 10 µM          %             86.6
20  Cn1c(=O)n(C)c2cc(CNC3(c4ccccc4)CC3)ccc21 [CBK282746]  viability at 28.5 h, 10 µM          %             87.9
21  COc1ccc(-c2ccc(SCC(=O)Nc3cc(C)on3)nn2)cc1 [CBK287634]  viability at 28.5 h, 10 µM          %             88.7
22  CSc1ccc(-c2nccnc2OCCC(C)C)cc1 [CBK106802]  viability at 28.5 h, 10 µM          %              113
23  CN(C)c1cccc(C(=O)N2CC[C@@H](c3ccccc3)[C@H](O)C2)c1 [CBK283713]  viability at 28.5 h, 10 µM          %             91.6
24  O=C(O)c1ccc(S(=O)(=O)c2ccc3c(c2)C(=O)N(c2ccc(Sc4ccc([N+](=O)[O-])cc4)cc2)C3=O)cc1 [CBK262869]  viability at 28.5 h, 10 µM          %              104
25  C(=C\c1ccccc1)/CSc1nnc(CSc2nc3ccccc3s2)n1-c1ccccc1 [CBK264467]  viability at 28.5 h, 10 µM          %              101
26  COc1ccccc1NC(=O)Cn1c(=O)oc2cc(Cl)ccc21 [CBK269344]  viability at 28.5 h, 10 µM          %             94.6
27  O=C(CCCCCN1C(=O)c2cccc3cccc(c23)C1=O)NO [CBK261295]  viability at 28.5 h, 10 µM          %             55.6
28  COC(=O)c1sccc1NC(=O)Cn1nnc(-c2ccc(C)cc2)n1 [CBK267183]  viability at 28.5 h, 10 µM          %             98.4
29  O=C(C[C@@H]1CCNC[C@@H]1Cc1cc(-c2ccccc2)on1)Nc1cccc(O)c1 [CBK289149]  viability at 28.5 h, 10 µM          %              102
30  Cc1cc(C)n(C(C)CNC(=O)C(C)n2ccnc2)n1 (centres unmarked) [CBK282049]  viability at 28.5 h, 10 µM          %              109
31  CC(=O)Nc1cccc(C(=O)N(Cc2ccccn2)CC2CCCO2)c1 (centres unmarked) [CBK306867]  viability at 28.5 h, 10 µM          %             90.5
32  CC(C)N1CC[C@@H]2[C@H]1C(=O)NC[C@H](CCC(=O)NCc1ccccc1)N2C [CBK289027]  viability at 28.5 h, 10 µM          %             91.7
33  O=C(OCCc1ccncc1)N1CCc2ccccc21 [CBK200140]  viability at 28.5 h, 10 µM          %             94.9
34  COc1cc2c(cc1NC(=O)CSc1nc3ccccc3o1)oc1ccccc12 [CBK265154]  viability at 28.5 h, 10 µM          %              105
35  CCN(CC)C(=O)CN1C(=O)[C@H]2CCCN2C(=O)c2ccccc21 [CBK286319]  viability at 28.5 h, 10 µM          %             95.5
36  Cc1cc2ncn(CC(=O)NCc3ccccc3)c2cc1C [CBK200213]  viability at 28.5 h, 10 µM          %              104
37  O=C(O)c1cc(NC(=O)c2cccc(Oc3ccc([N+](=O)[O-])cc3)c2)cc(C(=O)O)c1 [CBK263528]  viability at 28.5 h, 10 µM          %             80.8
38  Cc1ccc(C(C)C)c(OC(=O)c2ccc3nccnc3c2)c1 [CBK269114]  viability at 28.5 h, 10 µM          %             62.7
